System: HCT-116 colon
Assay: NCI-60 one-dose screen, 48 h (100 = growth as untreated, 0 = no growth, -100 = all killed)
Settings: 10 µM
The panel holds about 83,000 compounds, 20% with a hit somewhere; the sample as a whole holds those more often. Calls of active or inactive are those of the source. The calls were made as follows: active = growth percent below 10; inactive = the rest.
Endpoint Label: growth

Compound	Endpoint Label	Measured
CN1C(=O)CN2CCc3ccccc3C2c2cc(Cl)ccc21 (stereo not given)	growth	82.5% (inactive)
COc1cc(CN)ccc1O	growth	103% (inactive)
O=C(O)C(c1ccccc1)C(O)c1ccccc1 (stereo not given)	growth	105% (inactive)
CCn1c(=O)n(C)c2c(=O)n(C)c(=O)n(C)c21	growth	109% (inactive)
O=C1Cc2cc(O)ccc2O1	growth	101% (inactive)

----------
Each entry below lists one item and its recorded growth value.
Tested on: OVCAR-3 ovarian
Experiment: NCI-60 one-dose screen, 48 h (100 = growth as untreated, 0 = no growth, -100 = all killed)
Conditions: 10 µM
About 83,000 compounds went through this panel and 20% of them were active in at least one assay; those are over-represented in the sample as a whole. Activity calls are given as the source filed them. How the source made its calls: active means growth percent below 10; inactive means the rest. Where a SMILES comes first, the peptide text is derived from it. Bridges are numbered along the chain shown (N, C = ends). [ ]: non-standard residue; d: D form. The star is where a group is joined. ξ: configuration not given here. ξNMePhe(4-NMe2) = CNC(Cc1ccc(N(C)C)cc1)C(=O)O; Picolinoyl(3-OH) = O=C(c1ncccc1O)*; ξPip(4-oxo) = O=C1CCNC(C(=O)O)C1; Phg = N[CH](C(=O)O)c1ccccc1; Abu = CC[CH](N)C(=O)O
Endpoint Label: growth

Molecule	Study System	Endpoint Label	Measured
CC(=O)c1ccc(C)c(N)c1	OVCAR-3 ovarian	growth	108% (inactive)
O=C(N/N=C/c1ccccc1O)Nc1nn[nH]n1	OVCAR-3 ovarian	growth	116% (inactive)
O=C(Nc1cc(-c2ccccc2)[nH]n1)c1ccc(Cl)cc1	OVCAR-3 ovarian	growth	80.5% (inactive)
CSC(=N\N=C\c1ccc(N(C)C)cc1)/N=C/N(C)C	OVCAR-3 ovarian	growth	112% (inactive)
OC1CCCc2ccccc21 (configuration not stated)	OVCAR-3 ovarian	growth	110% (inactive)
Cc1cc(C)cc(NCCC#N)c1	OVCAR-3 ovarian	growth	105% (inactive)
O=S(=O)(O)C(Nc1ccccc1)c1ccccc1 (configuration not stated)	OVCAR-3 ovarian	growth	107% (inactive)
CN(C)c1ccc(CNC(C(=O)c2ccccc2)c2ccccc2)cc1 (configuration not stated)	OVCAR-3 ovarian	growth	114% (inactive)
CN(C)c1ccc(C(c2ccc(O)cc2)c2ccc(N(C)C)cc2)cc1	OVCAR-3 ovarian	growth	92.5% (inactive)
OC1OC(COC(c2ccccc2)(c2ccccc2)c2ccccc2)C(O)C(O)C1O (configuration not stated)	OVCAR-3 ovarian	growth	104% (inactive)
CCOC(=O)C(=O)C=P(c1ccccc1)(c1ccccc1)c1ccccc1	OVCAR-3 ovarian	growth	103% (inactive)
CN(c1ccccc1)c1ncnc2c1ncn2C	OVCAR-3 ovarian	growth	111% (inactive)
CCO/C=C1\SC(=S)N(c2cccc(C)c2)C1=O	OVCAR-3 ovarian	growth	104% (inactive)
Nc1ncnc2c1nc(N)n2C1OC(CO)C(O)C1O (configuration not stated)	OVCAR-3 ovarian	growth	-12.9% (active)
COc1cc2c(cc1OC)[C@H](C(=O)O)[C@@H](c1ccc(OC(C)C)c(OC)c1)N(C)C2=O	OVCAR-3 ovarian	growth	104% (inactive)
CCCCC/C=N/Nc1nc(C)cc(=O)[nH]1	OVCAR-3 ovarian	growth	114% (inactive)
C=CC[N+](C)(C)C	OVCAR-3 ovarian	growth	118% (inactive)
CC1Cc2ccccc2O1 (configuration not stated)	OVCAR-3 ovarian	growth	118% (inactive)
CCCCC(O)c1ccccc1 (configuration not stated)	OVCAR-3 ovarian	growth	109% (inactive)
C=CCNc1ccccc1	OVCAR-3 ovarian	growth	116% (inactive)
NC(=S)CN1CCOCC1	OVCAR-3 ovarian	growth	111% (inactive)
C/C=C/CC(C)C(O)C1C(=O)NC(CC)C(=O)N(C)CC(=O)N(C)C(CC(C)C)C(=O)NC(C(C)C)C(=O)N(C)C(CC(C)C)C(=O)NC(C)C(=O)NC(C)C(=O)N(C)C(CC(C)C)C(=O)N(C)C(CC(C)C)C(=O)N(C)C(C(C)C)C(=O)N1C (configuration not stated)	OVCAR-3 ovarian	growth	17.4% (inactive)
C/C(=N\NC(=O)c1ccccc1N)c1ccccc1O	OVCAR-3 ovarian	growth	12.4% (inactive)
NC(=O)c1ccc(N=C(N)N=C(N)N)cc1	OVCAR-3 ovarian	growth	105% (inactive)
CCCC(=O)Nc1ccc2c(c1)CN1C(=O)c3ccccc3C1=N2	OVCAR-3 ovarian	growth	102% (inactive)
N#Cc1ccc(NC(=O)Nc2cccc(C#N)c2)cc1	OVCAR-3 ovarian	growth	105% (inactive)
Clc1ccc(-c2n[nH]c3c2Cc2ccccc2-3)cc1Cl	OVCAR-3 ovarian	growth	110% (inactive)
CSC[C@H](NC(=O)COc1cccc2cnccc12)C(=O)NC(Cc1ccccc1)C(O)C(=O)N1CSC[C@H]1C(=O)NC(C)(C)C (some centres not stated)	OVCAR-3 ovarian	growth	101% (inactive)
CCC1NC(=O)C(NC(=O)c2ncccc2O)C(C)OC(=O)C(c2ccccc2)NC(=O)C2CC(=O)CCN2C(=O)C(Cc2ccc(N(C)C)cc2)N(C)C(=O)C2CCCN2C1=O (configuration not stated) (tested in a mixture with another compound) ({Picolinoyl(3-OH)}-T[Abu]P[ξNMePhe(4-NMe2)][ξPip(4-oxo)][Phg]; ester 1-C; configuration not given here)	OVCAR-3 ovarian	growth	63.1% (inactive)
O=C(O)c1ccc(S(=O)(=O)O)cc1	OVCAR-3 ovarian	growth	119% (inactive)
CC(C(=O)O)(C1CCCCC1)C1(O)CCCCC1 (configuration not stated)	OVCAR-3 ovarian	growth	107% (inactive)
O=S(=O)(O)c1ccc(Cl)c(Cl)c1	OVCAR-3 ovarian	growth	123% (inactive)

The values you see were collected from PubChem BioAssay (NCI).
